# System: Pan troglodytes
# Assay Text: Ratio of change in urate excretion to change in inulin excretion in chimpanzee in urine at 5 mg/kg, po
# Format: functional
Below is a list of entries, each paired with its recorded Ratio value.

- Compound: "CC1C(=O)c2c(cc(OCC(=O)O)c(Cl)c2Cl)C1c1ccccc1 (stereo not given)"
  Ratio: 0.12
- Compound: "CCC1(C)C(=O)c2c(cc(OCC(=O)O)c(Cl)c2Cl)C1c1ccccc1 (stereo not given)"
  Ratio: 0
- Compound: "O=C(O)COc1cc2c(c(Cl)c1Cl)C(=O)C1(CCCCC1)C2"
  Ratio: 0.05
- Compound: "O=C1c2c(cc(OCc3nnn[nH]3)c(Cl)c2Cl)CC12CCCC2"
  Ratio: 0.05
- Compound: "CC(C)C1C(=O)c2c(cc(OCC(=O)O)c(Cl)c2Cl)C1c1ccccc1 (stereo not given)"
  Ratio: 0.25

* * *

# Test system: Pan troglodytes
# Assay Text: Ratio of change in urate excretion to change in inulin excretion in chimpanzee in urine at 5 mg/kg, po
# Assay type: functional
Lab note: compare Ratio against 0.2. Equal or greater, write condition met. Smaller, write condition not met.

- Molecule: "CCC1Cc2cc(OCc3nnn[nH]3)c(Cl)c(Cl)c2C1=O (centres undefined)"
  Group Label: "condition not met"
- Molecule: "CCCC1(CC)Cc2cc(OCC(=O)O)c(Cl)c(Cl)c2C1=O (centres undefined)"
  Group Label: "condition not met"
- Molecule: "CC(C)C1Cc2cc(OCC(=O)O)c(Cl)c(Cl)c2C1=O (centres undefined)"
  Group Label: "condition not met"
- Molecule: "CC1(C)C(=O)c2c(cc(OCC(=O)O)c(Cl)c2Cl)C1c1ccccc1 (centres undefined)"
  Group Label: "condition not met"
- Molecule: "O=C(O)COc1cc2c(c(Cl)c1Cl)C(=O)C1(CCCC1)C2"
  Group Label: "condition not met"
- Molecule: "Cc1c(OCC(=O)O)cc2c(c1Cl)C(=O)C(C)(C1CCCC1)C2 (centres undefined)"
  Group Label: "condition met"
- Molecule: "O=C(O)COc1cc2c(c(Cl)c1Cl)C(=O)C(C1CCCCC1)C2 (centres undefined)"
  Group Label: "condition met"
- Molecule: "CCC1Cc2cc(OCC(=O)O)c(Cl)c(Cl)c2C1=O (centres undefined)"
  Group Label: "condition not met"
- Molecule: "CCC1C(=O)c2c(cc(OCC(=O)O)c(Cl)c2Cl)C1c1ccccc1 (centres undefined)"
  Group Label: "condition met"
- Molecule: "CC1c2cc(OCc3nnn[nH]3)c(Cl)c(Cl)c2C(=O)C1C1CCCC1 (centres undefined)"
  Group Label: "condition not met"
- Molecule: "CCC1C(=O)c2c(cc(OCC(=O)O)c(Cl)c2Cl)C1c1cccnc1 (centres undefined)"
  Group Label: "condition not met"
- Molecule: "CCCC1Cc2cc(OCC(=O)O)c(Cl)c(Cl)c2C1=O (centres undefined)"
  Group Label: "condition not met"
- Molecule: "CC1(Cc2ccccc2)Cc2cc(OCC(=O)O)c(Cl)c(Cl)c2C1=O (centres undefined)"
  Group Label: "condition not met"
- Molecule: "CC1(C)Cc2cc(OCC(=O)O)c(Cl)c(Cl)c2C1=O"
  Group Label: "condition not met"
- Molecule: "CC(C)(C)C1Cc2cc(OCC(=O)O)c(Cl)c(Cl)c2C1=O (centres undefined)"
  Group Label: "condition not met"
- Molecule: "O=C1c2c(cc(OCc3nnn[nH]3)c(Cl)c2Cl)CC1C1CCCC1 (centres undefined)"
  Group Label: "condition not met"
- Molecule: "Cc1c(OCC(=O)O)cc2c(c1Cl)C(=O)C(C(C)C)C2 (centres undefined)"
  Group Label: "condition not met"
- Molecule: "CCCCC1Cc2cc(OCC(=O)O)c(Cl)c(Cl)c2C1=O (centres undefined)"
  Group Label: "condition not met"
- Molecule: "CC(C)C1Cc2cc(OCc3nnn[nH]3)c(Cl)c(Cl)c2C1=O (centres undefined)"
  Group Label: "condition not met"
- Molecule: "O=C(O)COc1cc2c(c(Cl)c1Cl)C(=O)C(C1CCCC1)C2c1ccccc1 (centres undefined)"
  Group Label: "condition met"
- Molecule: "C=CCC1(C)Cc2cc(OCC(=O)O)c(Cl)c(Cl)c2C1=O (centres undefined)"
  Group Label: "condition not met"
- Molecule: "Cc1c(OCC(=O)O)cc2c(c1C)C(=O)C(C1CCCC1)C2 (centres undefined)"
  Group Label: "condition met"
- Molecule: "O=C1c2c(cc(OCc3nnn[nH]3)c(Cl)c2Cl)CC12CCCCC2"
  Group Label: "condition not met"
- Molecule: "CCC1(C2CCCC2)Cc2cc(OCC(=O)O)c(Cl)c(Cl)c2C1=O (centres undefined)"
  Group Label: "condition not met"
- Molecule: "O=C(O)COc1cc2c(c(Cl)c1Cl)C(=O)C(CC1CCCC1)C2 (centres undefined)"
  Group Label: "condition not met"
- Molecule: "NS(=O)(=O)c1cc(C(=O)O)c(NCc2ccco2)cc1Cl [FUROSEMIDE]"
  Group Label: "condition not met"
- Molecule: "Cc1c(OCC(=O)O)cc2c(c1Cl)C(=O)C(C1CCCC1)C2 (centres undefined)"
  Group Label: "condition not met"
- Molecule: "CC12CCCCC1c1cc(OCC(=O)O)c(Cl)c(Cl)c1C2=O (centres undefined)"
  Group Label: "condition met"
- Molecule: "Cc1c(OCC(=O)O)cc2c(c1C)C(=O)C(C(C)C)C2 (centres undefined)"
  Group Label: "condition not met"
- Molecule: "CC(C)C1(C)Cc2cc(OCc3nnn[nH]3)c(Cl)c(Cl)c2C1=O (centres undefined)"
  Group Label: "condition not met"
- Molecule: "CCC1C(=O)c2c(cc(OCc3nnn[nH]3)c(Cl)c2Cl)C1c1ccccc1 (centres undefined)"
  Group Label: "condition not met"
- Molecule: "CCC1(C)Cc2cc(OCC(=O)O)c(Cl)c(Cl)c2C1=O (centres undefined)"
  Group Label: "condition not met"
- Molecule: "CCC1C(=O)c2c(cc(OCC(=O)O)c(Cl)c2Cl)C1c1ccccn1 (centres undefined)"
  Group Label: "condition not met"

* * *

# System: Canis familiaris
# Assay Text: Diuretic activity in dog assessed as sodium level in urine collected for 2 hrs at 5 mg/kg, iv over a period of 5 mins (reference value: 5 to 30 microEq)
# Assay type: functional, Canis lupus familiaris
Below is a list of entries, each paired with its recorded Activity value.
Observation Type: Activity (uEq)

- Molecule: "O=C(O)COc1cc2c(c(Cl)c1Cl)C(=O)C1(CCCC1)C2"
  Observed Measurement: 330
- Molecule: "CCC1(C)Cc2cc(OCC(=O)O)c(Cl)c(Cl)c2C1=O (stereo not given)"
  Observed Measurement: 360
- Molecule: "Cc1c(OCC(=O)O)cc2c(c1C)C(=O)C(C(C)C)C2 (stereo not given)"
  Observed Measurement: 154
- Molecule: "CC1(C2CCCC2)Cc2cc(OCC(=O)O)c(Cl)c(Cl)c2C1=O (racemic)"
  Observed Measurement: 454
- Molecule: "C=CCC1(C)Cc2cc(OCC(=O)O)c(Cl)c(Cl)c2C1=O (stereo not given)"
  Observed Measurement: 175
- Molecule: "O=C(O)COc1cc2c(c(Cl)c1Cl)C(=O)C(C1CCCC1)C2 (stereo in doubt; 4p)"
  Observed Measurement: 20
- Molecule: "CC(C)C1Cc2cc(OCC(=O)O)c(Cl)c(Cl)c2C1=O (stereo not given)"
  Observed Measurement: 281
- Molecule: "NS(=O)(=O)c1cc2c(cc1Cl)NCNS2(=O)=O [HYDROCHLOROTHIAZIDE]"
  Observed Measurement: 166
- Molecule: "CC(C)C1(C)Cc2cc(OCC(=O)O)c(Cl)c(Cl)c2C1=O (racemic)"
  Observed Measurement: 185
- Molecule: "Cc1c(OCC(=O)O)cc2c(c1Cl)C(=O)C(C(C)C)C2 (stereo not given)"
  Observed Measurement: 218

* * *

# Assay Text: Acute toxicity in iv dosed mouse
# Type: organism-based
# Condition: in vivo
Below is a list of entries, each paired with its recorded LD50 value.

- Compound: "CCC1(C)Cc2cc(OCC(=O)O)c(Cl)c(Cl)c2C1=O (stereo not drawn)"
  Unit Abbreviation: "mg/kg"
  LD50: 239
- Compound: "CC1(C)Cc2cc(OCC(=O)O)c(Cl)c(Cl)c2C1=O"
  Unit Abbreviation: "mg/kg"
  LD50: 268
- Compound: "CC(C)C1(C)Cc2cc(OCC(=O)O)c(Cl)c(Cl)c2C1=O (racemic)"
  Unit Abbreviation: "mg/kg"
  LD50: 244
- Compound: "CC1(C2CCCC2)Cc2cc(OCC(=O)O)c(Cl)c(Cl)c2C1=O (racemic)"
  Unit Abbreviation: "mg/kg"
  LD50: 213
- Compound: "O=C(O)COc1cc2c(c(Cl)c1Cl)C(=O)C(C1CCCC1)C2 (stereo in doubt; 4p)"
  Unit Abbreviation: "mg/kg"
  LD50: 222
- Compound: "CCC1Cc2cc(OCC(=O)O)c(Cl)c(Cl)c2C1=O (stereo not drawn)"
  Unit Abbreviation: "mg/kg"
  LD50: 245
- Compound: "CC1Cc2cc(OCC(=O)O)c(Cl)c(Cl)c2C1=O (stereo not drawn)"
  Unit Abbreviation: "mg/kg"
  LD50: 354
- Compound: "CC(C)C1Cc2cc(OCC(=O)O)c(Cl)c(Cl)c2C1=O (stereo not drawn)"
  Unit Abbreviation: "mg/kg"
  LD50: 505
